Tested on: SK-OV-3 multi-cell spheroids, viability
Assay: Anticancer human tumor SK-OV-3 cell line growth inhibition [IpAb]
Settings: curve of first compound; second compound 0.316 µM
pIC50: −log10 of the molar value.
The entries below are paired with their reported pIC50.

Consider the reported pIC50 for these compounds:
compound: Cn1ncnc1[C@H]1c2n[nH]c(=O)c3cc(F)cc(c23)N[C@@H]1c1ccc(F)cc1 + CC(C)NCC(C(=O)N1CCN(c2ncnc3c2C(C)CC3O)CC1)c1ccc(Cl)cc1
assay-system: SK-OV-3 multi-cell spheroids, viability
result-value: > 9.50
--
compound: C=CC(=O)N1CCN(c2nc(=O)n(-c3c(C)ccnc3C(C)C)c3nc(-c4c(O)cccc4F)c(F)cc23)C(C)C1 (stereo not given) + CCN1CCN(Cc2ccc(Nc3ncc(F)c(-c4cc(F)c5nc(C)n(C(C)C)c5c4)n3)nc2)CC1
assay-system: SK-OV-3 multi-cell spheroids, viability
result-value: < 5.00
--
compound: Cn1ncc(Cl)c1-c1cc(C(=O)NC(CN)Cc2cccc(F)c2)sc1Cl (stereo not given) + CCN1CCN(Cc2ccc(Nc3ncc(F)c(-c4cc(F)c5nc(C)n(C(C)C)c5c4)n3)nc2)CC1
assay-system: SK-OV-3 multi-cell spheroids, viability
result-value: > 7.50
--
compound: Cn1ncnc1[C@H]1c2n[nH]c(=O)c3cc(F)cc(c23)N[C@@H]1c1ccc(F)cc1 + CCN1CCN(Cc2ccc(Nc3ncc(F)c(-c4cc(F)c5nc(C)n(C(C)C)c5c4)n3)nc2)CC1
assay-system: SK-OV-3 multi-cell spheroids, viability
result-value: < 7.00

Q) # lookup: SK-OV-3 multi-cell spheroids, viability pIC50, key = CC(C)(C)c1cnc(CSc2cnc(NC(=O)C3CCNCC3)s2)o1 + CCN1CCN(Cc2ccc(Nc3ncc(F)c(-c4cc(F)c5nc(C)n(C(C)C)c5c4)n3)nc2)CC1
A) 6.89

###

System: SK-OV-3 multi-cell spheroids, viability
Assay: Anticancer human tumor SK-OV-3 cell line growth inhibition [IpAb]; active = viability on the fitted dose curve at most 10% of control; inactive = the rest
Settings: second compound 0.316 µM; first compound 3.16 µM
Choose one outcome from this list and give only that: Y (active), N (inactive)

Take a look at these entries with their results.
molecule: CC1(C)CCC(CN2CCN(c3ccc(C(=O)NS(=O)(=O)c4ccc(NCC5CCOCC5)c([N+](=O)[O-])c4)c(Oc4cnc5[nH]ccc5c4)c3)CC2)=C(c2ccc(Cl)cc2)C1 + CC(C)NCC(C(=O)N1CCN(c2ncnc3c2C(C)CC3O)CC1)c1ccc(Cl)cc1
class-label: N
--
molecule: Cc1nc(NC(=O)N2CCCC2C(N)=O)sc1-c1ccnc(C(C)(C)C(F)(F)F)c1 (centres undefined) + CC(C)NCC(C(=O)N1CCN(c2ncnc3c2C(C)CC3O)CC1)c1ccc(Cl)cc1
class-label: Y
--
molecule: C=CCn1c(=O)c2cnc(Nc3ccc(N4CCN(C)CC4)cc3)nc2n1-c1cccc(C(C)(C)O)n1 + CCN1CCN(Cc2ccc(Nc3ncc(F)c(-c4cc(F)c5nc(C)n(C(C)C)c5c4)n3)nc2)CC1
class-label: N

# ---- query molecule ----
Q) Please let me know the test result on file for C=CCn1c(=O)c2cnc(Nc3ccc(N4CCN(C)CC4)cc3)nc2n1-c1cccc(C(C)(C)O)n1 + CC(C)NCC(C(=O)N1CCN(c2ncnc3c2C(C)CC3O)CC1)c1ccc(Cl)cc1 .
A) Y

###

System: SK-OV-3 multi-cell spheroids, viability
Experiment: Anticancer human tumor SK-OV-3 cell line growth inhibition [IpAb];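 on viability, T/C: viability read after seven days of drug exposure; percent of DMSO vehicle control luminescence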
Settings: second compound 0.1 µM; first compound 0.0949 µM; stronger effect = lower value
The entries below come with measured viability, T/C values attached.
Your answer is read as %, so omit the unit and give the number.

Below, 5 compounds whose answers are already recorded.
compound: CC(=O)c1c(C)c2cnc(Nc3ccc(N4CCNCC4)cn3)nc2n(C2CCCC2)c1=O + CC(C)NCC(C(=O)N1CCN(c2ncnc3c2C(C)CC3O)CC1)c1ccc(Cl)cc1
viability, T/C, %: 35.8

compound: CC(=O)c1c(C)c2cnc(Nc3ccc(N4CCNCC4)cn3)nc2n(C2CCCC2)c1=O + CCN1CCN(Cc2ccc(Nc3ncc(F)c(-c4cc(F)c5nc(C)n(C(C)C)c5c4)n3)nc2)CC1
viability, T/C, %: 40.5

compound: CC(C)(C)c1cnc(CSc2cnc(NC(=O)C3CCNCC3)s2)o1 + CC(C)NCC(C(=O)N1CCN(c2ncnc3c2C(C)CC3O)CC1)c1ccc(Cl)cc1
viability, T/C, %: 89.1

compound: CC(C)(C)c1cnc(CSc2cnc(NC(=O)C3CCNCC3)s2)o1 + CCN1CCN(Cc2ccc(Nc3ncc(F)c(-c4cc(F)c5nc(C)n(C(C)C)c5c4)n3)nc2)CC1
viability, T/C, %: 80.5

compound: Cn1cnc2c(F)c(Nc3ccc(Br)cc3Cl)c(C(=O)NOCCO)cc21 + CCN1CCN(Cc2ccc(Nc3ncc(F)c(-c4cc(F)c5nc(C)n(C(C)C)c5c4)n3)nc2)CC1
viability, T/C, %: 66.8

Moving on to another compound below.
Q) Give reported viability, T/C value for Cn1cnc2c(F)c(Nc3ccc(Br)cc3Cl)c(C(=O)NOCCO)cc21 + CC(C)NCC(C(=O)N1CCN(c2ncnc3c2C(C)CC3O)CC1)c1ccc(Cl)cc1
A) 49.1

###

Test system: SK-OV-3 multi-cell spheroids, viability
Assay: Anticancer human tumor SK-OV-3 cell line growth inhibition [IpAb]; active means viability on the fitted dose curve at most 10% of control; inactive means the rest
Settings: second compound 0.0316 µM; first compound 0.1 µM
// allowed return values: active, inactive

Q) What did this assay record as the result for Cn1ncnc1[C@H]1c2n[nH]c(=O)c3cc(F)cc(c23)N[C@@H]1c1ccc(F)cc1 + CCN1CCN(Cc2ccc(Nc3ncc(F)c(-c4cc(F)c5nc(C)n(C(C)C)c5c4)n3)nc2)CC1 ?
A) inactive

Q) Tell me the assay call for C=CC(=O)N1CCN(c2nc(=O)n(-c3c(C)ccnc3C(C)C)c3nc(-c4c(O)cccc4F)c(F)cc23)C(C)C1 (stereo not given) + CCN1CCN(Cc2ccc(Nc3ncc(F)c(-c4cc(F)c5nc(C)n(C(C)C)c5c4)n3)nc2)CC1 please.
A) inactive

Q) Assay outcome for Cc1nc(NC(=O)N2CCCC2C(N)=O)sc1-c1ccnc(C(C)(C)C(F)(F)F)c1 (stereo not given) + CCN1CCN(Cc2ccc(Nc3ncc(F)c(-c4cc(F)c5nc(C)n(C(C)C)c5c4)n3)nc2)CC1 : what was it?
A) inactive

Q) Returns: the outcome recorded for Cn1ncc(Cl)c1-c1cc(C(=O)NC(CN)Cc2cccc(F)c2)sc1Cl (stereo not given) + CCN1CCN(Cc2ccc(Nc3ncc(F)c(-c4cc(F)c5nc(C)n(C(C)C)c5c4)n3)nc2)CC1 in this assay.
A) inactive

Q) GET /call?item= CC(C)n1nc(-c2ccc3oc(N)nc3c2)c2c(N)ncnc21 + CCN1CCN(Cc2ccc(Nc3ncc(F)c(-c4cc(F)c5nc(C)n(C(C)C)c5c4)n3)nc2)CC1 returns the recorded outcome of this test.
A) active

###

Tested on: SK-OV-3 multi-cell spheroids, viability
Assay: Anticancer human tumor SK-OV-3 cell line growth inhibition [IpAb];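 on viability, T/C: viability read after seven days of drug exposure; percent of DMSO vehicle control luminescence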
Details: second compound 0.1 µM; first compound 0.316 µM; stronger effect = lower value
Description: Combinatorial screen of targeted agents with ipatasertib and abemaciclib in multi-cell type tumor spheroids […] Compounds. […] If the clinical Cmax for an agent had not been determined, the highest concentration tested was 10 microM. NCI60 Cell Culture. […] The optimal seeding densities for each of the cell lines at each time point assessed were determined prior to performing the concentration response studies. […]
Below, each entry is listed alongside its reported viability, T/C.

compound: Cn1nccc1Nc1nccc(-c2ccn(C(CO)c3ccc(Cl)c(F)c3)c(=O)c2)n1 (stereo unspecified) + CCN1CCN(Cc2ccc(Nc3ncc(F)c(-c4cc(F)c5nc(C)n(C(C)C)c5c4)n3)nc2)CC1
assay-system: SK-OV-3 multi-cell spheroids, viability
result-value: 63.2%

Q) # lookup: SK-OV-3 multi-cell spheroids, viability viability, T/C, key = COc1c(OCCCN2CCOCC2)ccc2c3n(c(=NC(=O)c4cnc(N)nc4)nc12)CCN3 + CC(C)NCC(C(=O)N1CCN(c2ncnc3c2C(C)CC3O)CC1)c1ccc(Cl)cc1
A) 5.28%

Q) Fill: viability, T/C (SK-OV-3 multi-cell spheroids, viability) for this compound Cn1nccc1Nc1nccc(-c2ccn(C(CO)c3ccc(Cl)c(F)c3)c(=O)c2)n1 (stereo unspecified) + CC(C)NCC(C(=O)N1CCN(c2ncnc3c2C(C)CC3O)CC1)c1ccc(Cl)cc1
A) 67.6%

Q) Send back SK-OV-3 multi-cell spheroids, viability viability, T/C of Cc1nc(NC(=O)N2CCCC2C(N)=O)sc1-c1ccnc(C(C)(C)C(F)(F)F)c1 (stereo unspecified) + CC(C)NCC(C(=O)N1CCN(c2ncnc3c2C(C)CC3O)CC1)c1ccc(Cl)cc1 only.
A) 35%

Q) Provide the reported viability, T/C (system: SK-OV-3 multi-cell spheroids, viability) for CC1(C)CCC(CN2CCN(c3ccc(C(=O)NS(=O)(=O)c4ccc(NCC5CCOCC5)c([N+](=O)[O-])c4)c(Oc4cnc5[nH]ccc5c4)c3)CC2)=C(c2ccc(Cl)cc2)C1 + CCN1CCN(Cc2ccc(Nc3ncc(F)c(-c4cc(F)c5nc(C)n(C(C)C)c5c4)n3)nc2)CC1
A) 55.2%

Q) Enter recorded viability, T/C with SK-OV-3 multi-cell spheroids, viability for Cn1ncc(Cl)c1-c1cc(C(=O)NC(CN)Cc2cccc(F)c2)sc1Cl (stereo unspecified) + CC(C)NCC(C(=O)N1CCN(c2ncnc3c2C(C)CC3O)CC1)c1ccc(Cl)cc1 here.
A) 25%
